System: MS2 coat protein
Assay: apparent KD of MS2 coat protein; designed switch direction (-1 OFF switch, 1 ON switch): -1; higher = weaker reporter binding
Details: input ligand: microRNA oligo, concentration not stated
Endpoint: apparent KD of MS2 coat protein (nM)
Please reply with the bare figure in nM and do not write the unit itself.

Here are 10 sequences together with their reported answers.
AAGAGGAUCAAAGGAUAUGGAGCUGAAACGGCGCUAGAAGGUUGUCCAGUGUAACAUGAGGAUCACCCAUGUAGGGACCUCUAA [AK ExNG1-V2-3] (Eterna round: R96, puzzle: Exclusion NG 1)
57.5
UAUUAGCAAGUAAGAUCCCACAUGAGGAUCACCCAUGUGCUCGUCUUAUAAGGUACUGUGACGAAAGUCACGGUACC [Sensor 3, v1 - 88] (Eterna round: R96, puzzle: Sensor v3, turn-off variant 1)
313
CGUGCGUAUGUGAGGAUAUGCUGGUCCUUGGAUCGGCAGAAGGCACAUGAGGAUCACCCAUGUGGUGUCGUUCC [salish99_Bmod_ex4_094] (Eterna round: R96, puzzle: Brourd's mod of Exclusion 4)
30.8
UAGCAUUGCCAAAGGUAGUGCAUUACAUGAGGAUCACCCAUGUAGGAUAUGGUAGGCUUUGCUUACCAGAAGGACAUGAUAAUU [Mat - Exclusion NG 3 - Mod of JL - D15] (Eterna round: R96, puzzle: Exclusion NG 3)
29.6
CUUGUUUAUGUAGGAUAUGCCUGGCGUGCCUUUGCAGAAGGACAUGAGGAUCACCCAUGUAUUGCGGUCUGCGUUCAGAUCGCU [salish99_ExNG1_r4_044] (Eterna round: R96, puzzle: Exclusion NG 1)
28.8
CUCGUGCAGCAAAGCUGUACGAGUACAUGAGGAUCACCCAUGUAGGAUAUGGUACGCAAAGCGUGCUAGAAGGAUAUGUGUAGG [Mat - Exclusion NG 3 - Mod of JL - D87] (Eterna round: R96, puzzle: Exclusion NG 3)
32.7
ACCGAUGUGCAAGGAUAUGACAUGAGGAUCACCCAUGUCAAAACAAGAAGAACGGGUGUGCCUCCUUAGAAGGUGCACAAACGA [Eternabot solution 2] (Eterna round: R96, puzzle: Exclusion NG 2)
17.1
GCGCCAUCGUGAGAUGGCGUAUAUACAUGAGGAUCACCCAUGUAGGAUAUCGAUUGCUUUGCAGUCGAGAAGGGCGUGUAAUUU [JL ENG3 3.92] (Eterna round: R96, puzzle: Exclusion NG 3)
22.5
AGCUGUGGCCGAGGAUAUCUGUUCCAUAUAACCGAAAUAUAAUCGGACAUGAGGAUCACCCAUGUAGAGAAGGCGGUCUCAGCA [Eli eng2 - 100] (Eterna round: R96, puzzle: Exclusion NG 2)
18.8
CACCGUUAGCGAGGAUAUCGUACAUGAGGAUCACCCAUGUAAUAAAUGAGAAUUUCGGAUGUAUGCGAGAAGGCGCGAAUCGGC [Ostracism 34 - Jieux - Exclusion NG 2] (Eterna round: R96, puzzle: Exclusion NG 2)
36.6

The sequence listed as CCUGCGGACAAAGGAUAUUGCGGUGGCCGGCUCGGCGUACCGAGCCUACAUGAGGAUCACCCAUGUAAGAAGGUUGUCGUUGGU [JL ViennaUCT Qudice mod] (Eterna round: R96, puzzle: Exclusion NG 2) has a reported apparent KD of MS2 coat protein of 26.9

Per the record, ACAUGACUGCUAGGAUAUAGAUGACAUGAGGAUCACCCAUGUUAUCCCAUGUUGAUGGAAACCGACUAGAAGGAGCAGCAUAUG [Ex NG2 #10] (Eterna round: R96, puzzle: Exclusion NG 2) has apparent KD of MS2 coat protein of 24.3

For reference, reported apparent KD of MS2 coat protein for GCGGACAAGAUGGCGACAUCAGAGACAUGAGGAUCACCCAUGUAGGAUAUCGAUUCGAAACGAAUCGAGAAGGGCAUAGUCCGC [JL denovo 34] (Eterna round: R96, puzzle: Exclusion NG 3) stands at 10.3

Record summary for AGCUGUGGCCGAGGAUAUCACGAACCAUGGAAAACCAUGGAAACUCUACAUGAGGAUCACCCAUGUGAGAAGGCGGUCUCAGCA [Eli eng2 - 022] (Eterna round: R96, puzzle: Exclusion NG 2) : reported apparent KD of MS2 coat protein = 21.6

apparent KD of MS2 coat protein for AACAGUACAGGAUAUACAUGAGGAUCACCCAUGUGAGAAUUAUGUGGCGUACCACAAAGUAGAAGGGUACUGGA [JL Maslow Revisted mod 3] (Eterna round: R96, puzzle: Exclusion 3) is 61.3

Please fill in: apparent KD of MS2 coat protein reported for ACGCAUUGCCUUUGGUAGUGCGUAACAUGAGGAUCACCCAUGUAGGAUAUGGUAGGCUUUGCUUACCAGAAGGACAUUAUAAAC [Mat - Exclusion NG 3 - Mod of JL - D9] (Eterna round: R96, puzzle: Exclusion NG 3) = 21.9

In plain terms, UAUAUAUAGUAAGGAUAUGUAUUAAUUUCAUAAACAGAAGGUACUGACAUGAGGAUCACCCAUGUUUUAGUGUGGGCAUGUAGA [JMF's solution 85] (Eterna round: R96, puzzle: Exclusion NG 1) has a documented apparent KD of MS2 coat protein of 54.2

The value of apparent KD of MS2 coat protein measured for the sequence GCGGACAAGAUCGCGAGAUCAGAGACAUGAGGAUCACCCAUGUAGGAUAUCGAUUCGAAACGAAUCGAGAAGGGCAUAGUCCGC [JL denovo 5] (Eterna round: R96, puzzle: Exclusion NG 3) turned out to be 11.6

====

Tested on: K4 kissing-loop RNA reporter;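 further: bound reporter read as fluorescence of individual clusters on recovered sequencing chips by microscopy, with normalized cluster intensities fitted with a binding model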
Assay: apparent KD of K4 kissing-loop reporter; higher = weaker reporter binding
Settings: Eterna round: R107; input ligand: tryptophan 2.4 mM
Class boundaries, taken from values of apparent KD of K4 kissing-loop reporter, are as follows: lower band = under 100 nM, central band = from 100 nM up to 200 nM, upper band = 200 nM and over

UUUGGAGUGGGAGGAUAUCCUAAUAUGGGUGAUGUUAGCGAUGUUGAAAGUGUAGUGAUGUUGUGCGGAGAAGGUCCAGUGUAGA [BDazzled - #14 - Exc. FMN B]
upper band
AAUAUAUAGUGAAGGAGCGCGAUAAGCAGUGAUGUUGCUUAGUUAUUAGUGUUUAUUUUUACGCAGGUAGGUCGCACUAUAUAUA [JR_ExcArginiB_Sub017]
central band
UCGCCCGAUGGAGAUACCAGCAGUUGUGCAGUGAUGUUGCACAAGUACUCGCUCCAUUGCUGCCCUUGGCAGCUCCCGGCAAACA [Enraed]
lower band
GGAAAUCUUGCCGAUACCAGAUCGCGCGGCCAUUGCUAGUGAUGUUGGCAAUAAGUACUCAUCCCUUGGCAGCGGUAAGGCAGUG [theeternabot_sameState_KL_Theo_B_23]
upper band
GCCGUAGAUUGAAGGAGCGCCGCGCAUGUCCCGCUUAGUGUAGUGAUGUUACAGUUUCAGCGGCAGGUAGGUCGCAAUCUACGGC
lower band
AGACUACCACACUGUCAAUAGACAGUGAGCUAGGAUAUGCUGAUAAGCAGAAGGAGUGAUGUUCCUCGGUAGUCAAUAAAAUAAU [FmnAX 13 G29+C67]
upper band
GGGUCAGCGCGAAGGAGCGCCCUGACAGGUUGCUGCCGUGGGCAGUGAUGUUGCUCAGUCCGGCAGGUAGGUCGCGUGCUGACCC
central band
GGUAGCAUGGCGGCCGCCACUCUAUGCGAGUGAUGUUCGCAGCUCAAAGAGCACCCGGGAACAGAGAGGACCGGGCCAUGCUACC
upper band

INPUT: Which category does the recorded apparent KD of K4 kissing-loop reporter put AGAGAUAUAUGAGGAUAUGGGUUUGUUAAUGAGUUAGUUUUAGUGUUGUUUGGUUAGUGAUGUUAUUUAGAAGGCGUGAGUGAUG [aatrmullin] in?
OUTPUT: lower band

INPUT: Which apparent KD of K4 kissing-loop reporter category applies to CACCCUAGUUCAGAUACCAGACUAGAGACAGUGAUGUUGUCACAUCCUAAAUUGGGUGUAGUCCCUUGGCAGCUGAGUAAUCUGC [Theo B/Ex/SS double] here?
OUTPUT: upper band

INPUT: Form: Item = GGGUCUGUCGGAAGGAGCGCGCUAUGGAGUGAUGUUCCAUGACCGUACAGCUUACGGUCAGCGCAGGUAGGUCGCCGAUAGCGUU [Geordiar] ; Class = ?
OUTPUT: central band

====

# reported apparent KD of MS2 coat protein; entries follow
System: MS2 coat protein
Assay: apparent KD of MS2 coat protein; designed switch direction (-1 OFF switch, 1 ON switch): 1; higher = weaker reporter binding
Details: input ligand: microRNA oligo, concentration not stated
State just the number; it will be interpreted in µM.

Field: example entries. Status: answers known.
CCCUGAGGCAGCCUACAGGGACAUGAGGAUCACCCAUGUACACAGGAUAUCGAGGGCUCCGCCCUCGAGAAGGGUGAUCAGACU [Redied] (Eterna round: R96, puzzle: Same State NG 3)
0.161
GCUCGAAUCACAGCCAACAUGAGGAUCACCCAUGUGUGUUGGUAGGAUAUCGUUUCUAAGGGAAACGAGAAGGGCCGAACGAGC [SameState NG3 #9] (Eterna round: R96, puzzle: Same State NG 3)
0.0392
UGGUACAUGGGAGGAUAUCUCGUGGAGACAUGAGGAUCACCCAUGUAGAUGGCCGGUAACCGGAGAGAGAAGGCCCAUGUACCU [JL SSNG1 3.68] (Eterna round: R96, puzzle: Same State NG 2)
0.0654

The sequence listed as UUAAUUUAUUGAGGAUAUUAUGUCGACUGAGUUGACAUGAGGAUCACCCAUGUGAGAAGUGGUAUUAAGAAGGCAAUAUUCAUA [JR_SSNG2_Sub087] (Eterna round: R96, puzzle: Same State NG 2) shows apparent KD of MS2 coat protein equal to 0.118

// sample AUAGUUGCCGAAGGAUAUGAUGAGGAUCACCCAUCAGAAGGUUGGCUAUUGGGUGGACAUGAGGAUCACCCAUGUCCUUUGGUU (Eterna round: R96, puzzle: Same State NG 1) , its apparent KD of MS2 coat protein was 0.0689

So for GGUAGGUUACUACCAAUCACAUGAGGAUCACCCAUGUUGUGGGAGGAUAUGGUACCUAUUUGGUACCAGAAGGCCUUAUUAAUU [Fiskers NG3ss - 11] (Eterna round: R96, puzzle: Same State NG 3) , the logged apparent KD of MS2 coat protein turned out to be 0.0556
